Target: TNF-alpha (Homo sapiens, UniProt P01375 P01375:77-233)
Sequence (P01375 77-233, one chain of several): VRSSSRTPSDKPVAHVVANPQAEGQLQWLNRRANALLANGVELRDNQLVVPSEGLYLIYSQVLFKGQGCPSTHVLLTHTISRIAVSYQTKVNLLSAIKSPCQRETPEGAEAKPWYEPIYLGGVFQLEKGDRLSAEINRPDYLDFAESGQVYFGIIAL
Assay: competition; U937 cells
Settings: tags: Genzyme or R&D Systems; chain copies: 3 inferred
Overview of reported Ki across a group of binders:
Express the result in nM but write the number alone.

Example entries and their recorded answers appear below.
{"columns": ["binder", "result_unit", "Ki"],
 "data": [
  ["TNF 18C (ssRNA) RNA: GGGAGCUCAGAAUAAACGCUCAAUGUCGAGUGCGAUGGAGGAGUAGGGAUGCAUUCGACAUGAGGCCCGGAUCCGGC", "nM", 2500],
  ["TNF 4C (ssRNA) RNA: GGGAGCUCAGAAUAAACGCUCAACUAGGCCCACCGUCCCUUCUAACAACGUCUUCGACAUGAGGCCCGGAUCCGGC", "nM", 1200],
  ["TNF 14C (ssRNA) RNA: GGGAGCUCAGAAUAAACGCUCAACGGCUUGCAGGUCGCCGAAAUGACCGCACAUUCGACAUGAGGCCCGGAUCCGGC", "nM", 930]
]}

We next turn to a different binder, shown below.
Request: Consider the binder shown here: TNF 6A (ssRNA) RNA: GGGAGCUCAGAAUAAACGCUCAACCACUGGCUAGGAACUCGAGUACUGGGUGGUUCGACAUGAGGCCCGGAUCCGGC What is its recorded Ki?
Result: 9100
